# target: the molecule itself
# protocol: SEC + SEC-MALS + other: negative stain electron microscopy; self-assembly of the protomer into the nanoparticle; Superose 6 10/300 at 0.5 ml/min with DAWN HELEOS II and Optilab T-rEX detectors, glycan mass corrected by protein-conjugate analysis; nsEM at 0.1 mg/ml in HBS, uranyl formate

{"protein": "(NANP)6 60mer (other, glycosylated (engineered glycosylation sites), Plasmodium falciparum circumsporozoite protein (PfCSP), strain 3D7; (NANP)6, 24-residue NANP repeat peptide; linker between the peptide and lumazine synthase; C-terminal extension with two added glycosylation sites; Self-assembling lumazine synthase nanoparticle; cloned into pHLsec between the leader and a double stop codon (AgeI/KpnI); also called (NANP)6 peptide 60mer; source: FreeStyle 293 F …) NANPNANPNANPNANPNANPNANPGSGNGTGGSMQIYEGKLTAEGLRFGIVASRANHALVDRLVEGAIDAIVRHGGREEDITLVRVCGSWEIPVAAGELARKENISAVIAIGVLCRGATPSFDYIASEVSKGLADLSLELRKPITFGVITADTLEQAIEAAGTCHGNKGWEAALCAIEMANLFKSLRGGSNGTGGSGGSNGT", "binding result": "binds"}
{"protein": "P9 60mer (other, glycosylated (engineered glycosylation sites), Plasmodium falciparum circumsporozoite protein (PfCSP), strain 3D7; linker between the peptide and lumazine synthase; C-terminal extension with two added glycosylation sites; Self-assembling lumazine synthase nanoparticle; cloned into pHLsec between the leader and a double stop codon (AgeI/KpnI); source: FreeStyle 293 F cells, transfected, purified (snowdrop lectin agarose, Superose 6 SEC); …) KQENWYSLKKNSRSLGSGNGTGGSMQIYEGKLTAEGLRFGIVASRANHALVDRLVEGAIDAIVRHGGREEDITLVRVCGSWEIPVAAGELARKENISAVIAIGVLCRGATPSFDYIASEVSKGLADLSLELRKPITFGVITADTLEQAIEAAGTCHGNKGWEAALCAIEMANLFKSLRGGSNGTGGSGGSNGT", "binding result": "binds"}

All values here come from paper PMC12627087.
